FYI, the data here is from the supplement of paper PMC3545927.

target: furin, P09958; experiment: furin cleavage Z-score vs untreated control; higher = more cleavage, active = 3.5 or more, inactive = 1 or less, 8 variable residues between constant flanks; conditions: 15 min;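 note: purified furin at 1:10 enzyme:substrate in 50 mM HEPES pH 7.5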
Sequence (P09958 whole entry): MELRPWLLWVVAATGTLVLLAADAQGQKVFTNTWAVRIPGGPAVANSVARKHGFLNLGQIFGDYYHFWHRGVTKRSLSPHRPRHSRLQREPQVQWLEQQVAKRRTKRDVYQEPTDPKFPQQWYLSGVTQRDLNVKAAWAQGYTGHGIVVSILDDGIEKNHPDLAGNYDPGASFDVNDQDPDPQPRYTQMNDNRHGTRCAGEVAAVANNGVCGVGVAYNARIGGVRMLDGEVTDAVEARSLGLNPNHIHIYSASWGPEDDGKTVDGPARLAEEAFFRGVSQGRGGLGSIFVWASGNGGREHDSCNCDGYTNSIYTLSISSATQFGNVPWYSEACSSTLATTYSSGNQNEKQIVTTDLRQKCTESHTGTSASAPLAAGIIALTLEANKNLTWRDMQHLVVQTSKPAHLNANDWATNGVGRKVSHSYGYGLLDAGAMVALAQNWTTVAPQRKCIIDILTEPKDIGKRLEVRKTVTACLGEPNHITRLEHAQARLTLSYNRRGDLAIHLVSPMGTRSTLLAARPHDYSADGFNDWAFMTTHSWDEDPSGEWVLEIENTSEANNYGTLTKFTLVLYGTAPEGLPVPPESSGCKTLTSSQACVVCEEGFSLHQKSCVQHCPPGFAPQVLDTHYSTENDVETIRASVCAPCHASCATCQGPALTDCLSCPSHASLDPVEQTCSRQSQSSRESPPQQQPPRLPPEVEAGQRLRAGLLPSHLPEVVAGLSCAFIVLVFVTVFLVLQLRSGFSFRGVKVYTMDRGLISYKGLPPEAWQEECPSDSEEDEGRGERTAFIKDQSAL
Some of the results follow. How many sequences the whole screen found active is unknown.
// classify into active, inactive

Please review the following examples before continuing.
Task: Any idea what this test logged for CARPVRGIHTAGNASASA [FS-3030] ?
Output: inactive

Task: Any idea what this test logged for CARTGRSIVYAGNASASA [FS-2465] ?
Output: active

Task: Any idea what this test logged for CAMEECSQCLAGNASASA [HC1760] ?
Output: inactive

Task: Any idea what this test logged for CARPPRSIVTAGNASASA [FS-2439] ?
Output: active

Task: Any idea what this test logged for CALTTTQWQVAGNASASA [HC494] ?
Output: inactive

---
Task: Any idea what this test logged for CAAYMNTPGLAGNASASA [HC931] ?
Output: inactive

Task: Any idea what this test logged for CADMMEECSQAGNASASA [HC1806] ?
Output: inactive

Task: Any idea what this test logged for CACPNSSIVYAGNASASA [HC264] ?
Output: inactive

Task: Any idea what this test logged for CAINSVWKDLAGNASASA [HC1430] ?
Output: inactive

Task: Any idea what this test logged for CAVVCCSMSGAGNASASA [HC2096] ?
Output: inactive

Task: Any idea what this test logged for CAAAPGAATAAGNASASA [HC1071] ?
Output: inactive

Task: Any idea what this test logged for CAPPCVIGGAAGNASASA [HC444] ?
Output: inactive

Task: Any idea what this test logged for CARPRRLSTAAGNASASA [FS-3022] ?
Output: inactive
